Hello, the source for this data is patent US20260373266A1, in case you need it.

# pKd annotations
- Target Or Test System: DCAF1 WD40 domain (residues 1077-1390) (Homo sapiens, UniProt Q9Y4B6)
- Construct: DCAF1 WD40 domain (residues 1077-1390)
- Sequence (Q9Y4B6 1077-1390): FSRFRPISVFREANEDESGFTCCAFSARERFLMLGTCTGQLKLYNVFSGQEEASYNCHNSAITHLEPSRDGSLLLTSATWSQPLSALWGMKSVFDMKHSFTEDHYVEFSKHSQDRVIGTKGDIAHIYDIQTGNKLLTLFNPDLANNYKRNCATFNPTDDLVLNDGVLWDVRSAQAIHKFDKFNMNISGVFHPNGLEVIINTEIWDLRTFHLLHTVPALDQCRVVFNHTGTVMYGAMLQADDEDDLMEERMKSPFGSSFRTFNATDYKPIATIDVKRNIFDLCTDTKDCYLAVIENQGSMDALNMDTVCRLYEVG
- Test Details: DCAF1 binding assay by SPR (Biacore 8K+), DCAF1-3 KD
- Cond: 25 °C, read-out: DCAF1-3 SPR (KD)
pKd: −log10 of the molar value.

Record excerpt, results attached:
>  <Compound>
C=CC(=O)NC1CCC(c2n[nH]cc2C(=O)N[C@@H](CC(N)=O)c2cccc(Cl)c2)CC1 (stereo partly drawn)

>  <pKd>
< 3.70

$$$$
>  <Compound>
c1ccc2c(N3CCC[C@@H](Nc4nccc(N5CCOCC5)n4)C3)ccnc2c1

>  <pKd>
4.00 to 5.00

$$$$
>  <Compound>
CS(=O)(=O)CN(c1cc(N2CCOCC2)ccn1)[C@@H]1CCCN(c2cccc(F)c2)C1

>  <pKd>
< 3.70

$$$$
>  <Compound>
Cc1c(F)ccc(F)c1-c1[nH]ncc1C(=O)N[C@@H](CC(=O)N1CCOCC1)c1cccc(Cl)c1

>  <pKd>
> 5.00

$$$$
>  <Compound>
Oc1c(CN2CCCCC2)cccc1[C@H]1CCCN(c2cccc(F)c2)C1

>  <pKd>
< 3.70

$$$$

Query :: GET /values?readout=pKd&item= COCCN(c1cc(N2CCOCC2)ccn1)[C@@H]1CCCN(c2cccc(F)c2)C1
Result :: 4.00 to 5.00

Query :: Similarly, NC(=O)CC(Cc1ccccc1)NC(=O)c1cn[nH]c1-c1cc(F)ccc1F (stereo not drawn) ?
Result :: 4.00 to 5.00
